# tested-on: m3C substrate
# measurement-notes: Equilibrium fluorescence titration with methylated DNA
# Assay type: binding
# condition: 1 µM apoprotein, 2 mM EDTA, 25 °C; read-out: Dissociation constant Kd, m3C substrate
measurement-kind: pKd
By convention, pKd is the negative base-10 log of a molar concentration.

Example entries and their recorded answers appear below.
{"columns": ["molecule", "assay-result"],
 "data": [
  ["Y143F ALKBH3: ALKBH3 mutant, Tyr143 replaced with Phe (protein, UniProt Q96Q83 1-286, looked up, variant Y143F) Alpha-ketoglutarate-dependent …: MEEKRRRARVQGAWAAPVKSQAIAQPATTAKSHLHQKPGQTWKNKEHHLSDREFVFKEPQQVVRRAPEPRVIDREGVYEISLSPTGVSRVCLYPGFVDVKEADWILEQLCQDVPWKQRTGIREDITYQQPRLTAWYGELPYTFSRITMEPNPHWHPVLRTLKNRIEENTGHTFNSLLCNLYRNEKDSVDWHSDDEPSLGRCPIIASLSFGATRTFEMRKKPPPEENGDYTYVERVKIPLDHGTLLIMEGATQADWQHRVPKEYHSREPRVNLTFRTVYPDPRGAPW", 5.42],
  ["L177A ALKBH3: ALKBH3 mutant, Leu177 replaced with Ala (protein, UniProt Q96Q83 1-286, looked up, variant L177A) Alpha-ketoglutarate-dependent …: MEEKRRRARVQGAWAAPVKSQAIAQPATTAKSHLHQKPGQTWKNKEHHLSDREFVFKEPQQVVRRAPEPRVIDREGVYEISLSPTGVSRVCLYPGFVDVKEADWILEQLCQDVPWKQRTGIREDITYQQPRLTAWYGELPYTYSRITMEPNPHWHPVLRTLKNRIEENTGHTFNSLACNLYRNEKDSVDWHSDDEPSLGRCPIIASLSFGATRTFEMRKKPPPEENGDYTYVERVKIPLDHGTLLIMEGATQADWQHRVPKEYHSREPRVNLTFRTVYPDPRGAPW", 5.24]
]}

Please turn your attention to the following entry.
Please indicate pKd recorded for H191A ALKBH3: ALKBH3 mutant, His191 replaced with Ala (protein, UniProt Q96Q83 1-286, looked up, variant H191A) Alpha-ketoglutarate-dependent …: MEEKRRRARVQGAWAAPVKSQAIAQPATTAKSHLHQKPGQTWKNKEHHLSDREFVFKEPQQVVRRAPEPRVIDREGVYEISLSPTGVSRVCLYPGFVDVKEADWILEQLCQDVPWKQRTGIREDITYQQPRLTAWYGELPYTYSRITMEPNPHWHPVLRTLKNRIEENTGHTFNSLLCNLYRNEKDSVDWASDDEPSLGRCPIIASLSFGATRTFEMRKKPPPEENGDYTYVERVKIPLDHGTLLIMEGATQADWQHRVPKEYHSREPRVNLTFRTVYPDPRGAPW
5.37
